experimentalContext: Glass; DTA
measureName: Glass transition temperature (°C)

| molecule | measureName | experimentalValue |
| --- | --- | --- |
| CCCC[n+]1ccn(CC)c1.O=S(=O)([N-]S(=O)(=O)C(F)(F)F)C(F)(F)F | Glass transition temperature | -92.2 |
| CCCCCCn1cc[n+](CC)c1.O=S(=O)([N-]S(=O)(=O)C(F)(F)F)C(F)(F)F [1-hexyl-3-ethylimidazolium bis(trifluoromethylsulfonyl)imide] | Glass transition temperature | -88.3 |
| CCCC[n+]1ccn(CC)c1.F[P-](F)(F)(F)(F)F [1-butyl-3-ethylimidazolium hexafluorophosphate] | Glass transition temperature | -80.2 |
| CCn1cc[n+](CC)c1.O=S(=O)([N-]S(=O)(=O)C(F)(F)F)C(F)(F)F [1,3-diethylimidazolium bis[(trifluoromethyl)sulfonyl]imide] | Glass transition temperature | -67.2 |

----------
experimentalContext: 298.15 K; 101.33 kPa; Liquid; Vibrating tube method
measureName: mass density (kg/m3)

| molecule | measureName | experimentalValue |
| --- | --- | --- |
| CCCCCCn1cc[n+](CC)c1.O=S(=O)([N-]S(=O)(=O)C(F)(F)F)C(F)(F)F [1-hexyl-3-ethylimidazolium bis(trifluoromethylsulfonyl)imide] | mass density | 1345.4 |
| CCn1cc[n+](CC)c1.O=S(=O)([N-]S(=O)(=O)C(F)(F)F)C(F)(F)F [1,3-diethylimidazolium bis[(trifluoromethyl)sulfonyl]imide] | mass density | 1476 |
| CCCC[n+]1ccn(CC)c1.O=S(=O)([N-]S(=O)(=O)C(F)(F)F)C(F)(F)F | mass density | 1401.8 |
| CCCC[n+]1ccn(CC)c1.F[P-](F)(F)(F)(F)F [1-butyl-3-ethylimidazolium hexafluorophosphate] | mass density | 1327.6 |
